- Test system: MDA-MB-231/ATCC
- ASSAY_METHOD_TEXT: NCI-60 one-dose screening
- Format: cell-based
- SETTINGS: Homo sapiens, Breast Cancer, read-out: GI (%)

[
  {
    "MOLECULE": "COc1cc(C=C2C(=O)Nc3ccc(Cl)cc32)ccc1O (mixture of isomers)",
    "UNIT_ANNOTATION": "%",
    "inhibition at 10 µM": 36.7
  },
  {
    "MOLECULE": "COc1ccc(COc2ccc(/C=C3/C(=O)Nc4ccc(Cl)cc43)cc2OC)cc1",
    "UNIT_ANNOTATION": "%",
    "inhibition at 10 µM": -0.06
  },
  {
    "MOLECULE": "COc1cc(/C=C2/C(=O)Nc3ccc(Cl)cc32)ccc1OCc1ccccc1",
    "UNIT_ANNOTATION": "%",
    "inhibition at 10 µM": 7.87
  },
  {
    "MOLECULE": "COc1cc(C=C2C(=O)Nc3ccccc32)ccc1OCc1ccccn1 (mixture of isomers)",
    "UNIT_ANNOTATION": "%",
    "inhibition at 10 µM": 18.1
  },
  {
    "MOLECULE": "COc1ccc(COc2ccc(/C=C3/C(=O)Nc4cc(Cl)ccc43)cc2OC)cc1",
    "UNIT_ANNOTATION": "%",
    "inhibition at 10 µM": 5.7
  },
  {
    "MOLECULE": "COc1cc(/C=C2/C(=O)Nc3cc(Cl)ccc32)ccc1OCc1ccccn1",
    "UNIT_ANNOTATION": "%",
    "inhibition at 10 µM": 13.4
  },
  {
    "MOLECULE": "COc1cc(/C=C2/C(=O)Nc3ccccc32)ccc1OCc1ccc(Cl)cc1",
    "UNIT_ANNOTATION": "%",
    "inhibition at 10 µM": 1
  },
  {
    "MOLECULE": "COc1cc(C=C2C(=O)Nc3ccc(Cl)cc32)ccc1OCc1ccc(F)cc1 (mixture of isomers)",
    "UNIT_ANNOTATION": "%",
    "inhibition at 10 µM": 13.1
  }
]
